This collection of values is drawn from patent US8871753B2.

targetOfAssay: human JAK1 (a.a. 837-1142) (Homo sapiens)
Construct: human JAK1 (a.a. 837-1142); His tag (N); made in house; host or cells: insect cells (baculovirus)
Sequence (P23458 849-1154): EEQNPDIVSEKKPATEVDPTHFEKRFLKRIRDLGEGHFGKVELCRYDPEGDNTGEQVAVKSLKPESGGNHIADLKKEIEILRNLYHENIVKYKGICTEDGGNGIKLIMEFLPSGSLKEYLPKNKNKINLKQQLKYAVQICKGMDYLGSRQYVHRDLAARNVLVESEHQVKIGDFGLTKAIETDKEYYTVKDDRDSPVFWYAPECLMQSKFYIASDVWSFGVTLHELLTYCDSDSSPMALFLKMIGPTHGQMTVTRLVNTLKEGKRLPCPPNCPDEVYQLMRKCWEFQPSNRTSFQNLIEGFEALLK
testName: In vitro JAK kinase assay (HTRF, phosphorylation of a biotinylated peptide), JAK1
Format: biochemical
cond: method AA1 (90 μM ATP) or AA2 (1000 μM ATP), not stated per value; read-out: JAK1 IC50
Counter-ions that a name gives are not always drawn.
This section presents compounds with their documented IC50 values.

compound	IC50 / nM
Cc1ccc(N2CCC(CC(=O)Nc3ccc4cc3CCc3cncc(c3)Nc3ncc(Cl)c(n3)N4)CC2)nn1 [Example A173, tris(trifluoroacetate)]	8
Oc1cc2cc(c1)Nc1nc(ncc1Cl)Nc1cccc(c1)CC2 [Example A22, trifluoroacetate]	11
O=C(CC1CCN(C(=O)Nc2cccc(F)c2)CC1)Nc1ccc2cc1CCc1cncc(c1)Nc1ncc(Cl)c(n1)N2 [Example A147, bis(trifluoroacetate)]	0.3
